Each item that follows carries a reported IC50.
- Test system: LoVo/DX
- MEASUREMENT_PROTOCOL: cells
- Type: cell-based, human
- CONDITION_CONTEXT: Homo sapiens, LoVo/DX, 72 h, read-out: LoVo/DX IC50 (nM), 72 h exposure, SRB, mean ± SD
- Procedure: The A549 and MCF7 cell lines were purchased from the European Collection of Authenticated Cell Cultures (ECACC, Salisbury, U.K., 86012804 and 86012803). […] After 72 h of incubation with the tested compounds, the cells were fixed in situ by gently adding cold 50% trichloroacetic acid (TCA) (POCh, Poland) and were incubated at room temperature for 1 h. […] Absorbance of each solution was read at Synergy H4 Hybrid Multi-Mode Microplate Reader (BioTek Instruments) at the 540 nm wavelength. […]
Numeric only. Scale: nM

Example results:
line_notation=CNc1ccc2c(cc1=O)[C@@H](n1cc(CNC(=O)C(C)C)nn1)CCc1cc(OC)c(OC)c(OC)c1-2 result_type=IC50 unit_of_measurement=nM observed_result=2700
line_notation=CCOC(=O)c1cn([C@H]2CCc3cc(OC)c(OC)c(OC)c3-c3ccc(NC)c(=O)cc32)nn1 result_type=IC50 unit_of_measurement=nM observed_result=220
line_notation=CNc1ccc2c(cc1=O)[C@@H](n1cc(CNC(=O)OCC(C)C)nn1)CCc1cc(OC)c(OC)c(OC)c1-2 result_type=IC50 unit_of_measurement=nM observed_result=310
line_notation=CNc1ccc2c(cc1=O)[C@@H](n1cc(CNC(=O)CCNC(=O)OC(C)(C)C)nn1)CCc1cc(OC)c(OC)c(OC)c1-2 result_type=IC50 unit_of_measurement=nM observed_result=17000
line_notation=CNc1ccc2c(cc1=O)[C@@H](n1cc(CNC(=O)CCCCCl)nn1)CCc1cc(OC)c(OC)c(OC)c1-2 result_type=IC50 unit_of_measurement=nM observed_result=2800
line_notation=CNc1ccc2c(cc1=O)[C@@H](N=[N+]=[N-])CCc1cc(OC)c(OC)c(OC)c1-2 result_type=IC50 unit_of_measurement=nM observed_result=1.7

Lookup: Recorded IC50 for `C=CCOC(=O)NCc1cn([C@H]2CCc3cc(OC)c(OC)c(OC)c3-c3ccc(NC)c(=O)cc32)nn1` , please?
Found: 440

Lookup: Recorded IC50 for `CNc1ccc2c(cc1=O)[C@@H](n1cc(CNC(=O)OC(C)(C)C)nn1)CCc1cc(OC)c(OC)c(OC)c1-2` , please?
Found: 570
